# MEASUREMENT NOTES: chemical genetic growth profiling, strain panel (AID 1159580);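 further: tested at 20 µM; growth read once vehicle control cultures reached saturation at 30 °C; 1 = growth at the plate median or of vehicle wells; lower values mean less growth of the strain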
# SETUP CONDITIONS: S. cerevisiae deletion strains, growth OD, locus YNL248C, strain rpa49, hits give low values
The whole screen tested about 5,500 compounds, of which about 2,000 (36%) were called active. Inconclusive results (about 18%) are left out. The list shows a part of the results.
PROPERTY: normalized growth

[
  {
    "COMPOUND": "N#Cc1c(Cl)c(Cl)c(Cl)c(C#N)c1Cl",
    "PROPERTY": "normalized growth",
    "RESULT": 0.0922
  },
  {
    "COMPOUND": "OCC(O)Cc1ccc2c(c1)OCO2 (stereo not drawn)",
    "PROPERTY": "normalized growth",
    "RESULT": 0.979
  },
  {
    "COMPOUND": "CCC1(c2ccccc2)C(=O)NCNC1=O",
    "PROPERTY": "normalized growth",
    "RESULT": 1.01
  },
  {
    "COMPOUND": "COc1ccc2c(c1)OC[C@@H](Cc1ccc(OC)c(OC)c1)[C@H]2O",
    "PROPERTY": "normalized growth",
    "RESULT": 1.01
  },
  {
    "COMPOUND": "COc1ccc2c(c1)OC[C@@H](Cc1ccc(OC)c(OC)c1)[C@@H]2O",
    "PROPERTY": "normalized growth",
    "RESULT": 1.01
  },
  {
    "COMPOUND": "CCC1(C)CC(=O)NC1=O (stereo not drawn)",
    "PROPERTY": "normalized growth",
    "RESULT": 0.993
  },
  {
    "COMPOUND": "CC(=O)O[C@H]1C(=O)[C@@]2(C)C([C@H](OC(=O)c3ccccc3)[C@]3(O)C[C@H](OC(=O)[C@H](O)[C@@H](NC(=O)c4ccccc4)c4ccccc4)C(C)=C1C3(C)C)[C@]1(OC(C)=O)CO[C@@H]1C[C@@H]2O (stereo partly drawn)",
    "PROPERTY": "normalized growth",
    "RESULT": 0.783
  },
  {
    "COMPOUND": "OC(CCN1CCCCC1)(c1ccccc1)c1ccccc1",
    "PROPERTY": "normalized growth",
    "RESULT": 1.06
  },
  {
    "COMPOUND": "CNC1(C)C2CCC(C2)C1(C)C (stereo not drawn)",
    "PROPERTY": "normalized growth",
    "RESULT": 0.982
  },
  {
    "COMPOUND": "Cc1cc(C(C)(C)CC(C)(C)C)ccc1OCCOCC[N+](C)(C)Cc1ccccc1",
    "PROPERTY": "normalized growth",
    "RESULT": 0.0804
  },
  {
    "COMPOUND": "CCCCOc1ccc(OCCCN2CCOCC2)cc1",
    "PROPERTY": "normalized growth",
    "RESULT": 0.769
  },
  {
    "COMPOUND": "Cc1ccc2c(c1)CC[C@H]1CC(=O)CC[C@]21C",
    "PROPERTY": "normalized growth",
    "RESULT": 0.99
  },
  {
    "COMPOUND": "Cc1ccc(O)cc1",
    "PROPERTY": "normalized growth",
    "RESULT": 1.03
  },
  {
    "COMPOUND": "COc1c2c(c(CC=C(C)C)c3oc(=O)c(-c4ccc(O)cc4)c(O)c13)OC(C)(C)C=C2",
    "PROPERTY": "normalized growth",
    "RESULT": 0.973
  },
  {
    "COMPOUND": "COc1ccc(C(=O)c2ccccc2)c(O)c1",
    "PROPERTY": "normalized growth",
    "RESULT": 0.639
  },
  {
    "COMPOUND": "COC(=O)C1[C@H]2C[C@H]3c4[nH]c5ccccc5c4CCN3C[C@@H]2CC[C@@H]1O (stereo partly drawn)",
    "PROPERTY": "normalized growth",
    "RESULT": 0.998
  },
  {
    "COMPOUND": "CN1CCc2cc3c(cc2C1O)OCO3 (stereo not drawn)",
    "PROPERTY": "normalized growth",
    "RESULT": 1
  },
  {
    "COMPOUND": "COc1cc(OC)c2c(c1)O[C@H](c1ccc(OC)c(OC)c1)[C@@H](O)C2",
    "PROPERTY": "normalized growth",
    "RESULT": 0.968
  },
  {
    "COMPOUND": "COC(=O)COc1cc(Cl)c(Cl)cc1Cl",
    "PROPERTY": "normalized growth",
    "RESULT": 1
  },
  {
    "COMPOUND": "COc1cccc([C@]2(O)CCCC[C@H]2CN(C)C)c1",
    "PROPERTY": "normalized growth",
    "RESULT": 0.989
  },
  {
    "COMPOUND": "CC(=O)O[C@H]1C(=O)[C@@]2(C)C([C@H](OC(=O)c3ccccc3)[C@]3(O)C[C@H](O)C(C)=C1C3(C)C)[C@]1(OC(C)=O)CO[C@@H]1C[C@@H]2O (stereo partly drawn)",
    "PROPERTY": "normalized growth",
    "RESULT": 0.974
  },
  {
    "COMPOUND": "O=C(O)COc1cc(Cl)c(Cl)cc1Cl",
    "PROPERTY": "normalized growth",
    "RESULT": 0.992
  },
  {
    "COMPOUND": "CC(=O)CC(=O)CCC(=O)O",
    "PROPERTY": "normalized growth",
    "RESULT": 0.989
  }
]
